experimental-system: T1, MICA008.His (human MICA*008 alpha 3 domain, His tagged) (human)
T1 construct: Also used for FPOP (expressed in CHO); also called huMICA*008 alpha 3-his; MICA*008 a3
T1 chain: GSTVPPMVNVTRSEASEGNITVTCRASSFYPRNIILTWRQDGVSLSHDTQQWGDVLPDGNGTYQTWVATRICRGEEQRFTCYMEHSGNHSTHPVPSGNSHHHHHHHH
protocol-summary: SPR, antibody captured;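 note: SPR with antibody held by surface-bound anti-Fc while His-tagged alpha three domains flow over, Kd derived by fitting a one-to-one binding model to sensograms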
assay-readout: Kd (nM)

binder | endpoint-result
15F11 (antibody, V domains shown, Mouse variable domains; constant regions differ by assay) VH: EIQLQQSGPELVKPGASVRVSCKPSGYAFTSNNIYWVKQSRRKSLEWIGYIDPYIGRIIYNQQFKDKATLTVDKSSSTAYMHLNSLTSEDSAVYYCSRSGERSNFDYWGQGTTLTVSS VL: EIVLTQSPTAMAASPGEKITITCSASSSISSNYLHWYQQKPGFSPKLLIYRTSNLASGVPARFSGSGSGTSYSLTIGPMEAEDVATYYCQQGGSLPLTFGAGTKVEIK | 1.02
12H10 (antibody, V domains shown, Mouse variable domains; constant regions differ by assay) VH: DVQLQESGPGLVKPSQPLSLTCTVTGYSITSNYAWNWIRQFPGDKLEWMGYISSSGITKSNPSLKSRISITRDTSKNQFFLQLNSLTTEDTATYYCSRWSNWSFDVWGAGTTVTVSS VL: DIQMTQTPSSLSVSLGDRVTINCRASQDIHNYFNWYQQKPDGTIKLLIYYTSRFHSGVPSRFSGSGSGTDYSLTISNLEEEDIATYFCQQGNSLPPTFGGGTKLEIK | 1.48
7D4.6 (antibody, V domains shown, Mouse hybridoma antibody; constant regions differ by assay) VH: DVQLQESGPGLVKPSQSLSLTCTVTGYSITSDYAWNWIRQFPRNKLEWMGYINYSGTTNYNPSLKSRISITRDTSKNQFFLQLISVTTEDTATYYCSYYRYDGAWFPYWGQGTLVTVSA VL: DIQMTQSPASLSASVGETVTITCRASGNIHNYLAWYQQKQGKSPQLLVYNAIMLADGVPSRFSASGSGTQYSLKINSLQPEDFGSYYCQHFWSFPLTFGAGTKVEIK | 10
1D5 (antibody, V domains shown, Mouse variable domains; constant regions differ by assay (human IgG1 or mouse IgG2a); also called anti-MIC 1D5) VH: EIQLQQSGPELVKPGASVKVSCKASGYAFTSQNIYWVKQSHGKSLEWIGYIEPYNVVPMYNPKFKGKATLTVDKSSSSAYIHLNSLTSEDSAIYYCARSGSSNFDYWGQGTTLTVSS VL: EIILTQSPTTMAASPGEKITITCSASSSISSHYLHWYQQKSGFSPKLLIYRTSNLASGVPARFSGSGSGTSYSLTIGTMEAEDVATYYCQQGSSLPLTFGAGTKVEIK | 0.42
18G3 (antibody, V domains shown, Mouse variable domains; constant regions differ by assay) VH: VQLQESGPGLVKPSQSLSLTCNVTGYSITGDYAWNWIRQFPGNKLEWIGYIGYTGSTTYNPSLKSRVSITRDTSKNQFFLQLNSVTPEDTATYYCARWRNWAMDYWGLGTSVTVSS VL: DIQMTQTPSSLSASLGDRVTISCRANQDISHYLNWYQQKPDGAVKLLIYYTSRIHSGVPSRFSGSGSGTDYSLTIANLEQEDVATYFCQQGNTPPTTFGGGTKVEIK | 2.03

Provenance of the data: patent US20200055939A1
